Data origin: ChEMBL document CHEMBL3108669

test: Induction of ROS generation in MeOH/PBS solution by AUR-based fluorescence assay; assay type: physicochemical; details: buffer
result_type: Activity

CC[C@H]1c2cc3[nH]c4c(c3C)C(=O)[C@H](C(=O)OC)c4c3nc(cc4[nH]c(cc(n2)[C@@H]1C)c(C(C)=O)c4C)[C@@H](C)[C@@H]3CCC(=O)O | Active
CC[C@H]1c2cc3[nH]c4c(c3C)C(=O)[C@H](C(=O)OC)c4c3nc(cc4[nH]c(cc(n2)[C@@H]1C)c(C(C)=O)c4C)[C@@H](C)[C@@H]3CCC(=O)OC | Active
CC[C@H]1c2cc3[nH]c4c(c3C)C(=O)[C@H](C(=O)OC)c4c3nc(cc4[nH]c(cc(n2)[C@@H]1C)c(C(C)=O)c4C)[C@@H](C)[C@@H]3CCC(=O)NCCS(=O)(=O)O | Active
